The origin of these recorded values is patent US20260224716A1.

assay: Rate of model dipeptide cleavage from hexapeptide in PBS (HPLC, LC-MS); type: physicochemical; details: buffer
Where a SMILES comes first, the peptide text is derived from it. [ ]: non-standard residue; d: D form. The star is where a group is joined. NMeH = CN[C@@H](Cc1c[nH]cn1)C(=O)O; Isobutyryl(2-OH) = CC(C)(O)C(=O)*; Deg = CCC(N)(CC)C(=O)O; Aib = CC(C)(N)C(=O)O
Measured half-life at 1 mg/ml, listed per entry for reference.
recordedMetric: half-life at 1 mg/ml (h)

compound	valueUnits	numericResult
C[C@@H](O)[C@H](NC(=O)CNC(=O)[C@H](CCCNC(=N)N)NC(=O)[C@H](CO)NC(=O)[C@H](Cc1c[nH]cn1)N(C)C(=O)[C@@H]1CCCN1C(=O)C(C)(C)N)C(=O)N[C@@H](Cc1ccccc1)C(N)=O [compound 23] (H-[Aib]P[NMeH]SRGTF-NH2)	h	30
C[C@@H](O)[C@H](NC(=O)CNC(=O)[C@H](CCCNC(=N)N)NC(=O)[C@H](CO)NC(=O)[C@H](Cc1c[nH]cn1)NC(=O)[C@@H]1CCCN1C(=O)C(C)(C)O)C(=O)N[C@@H](Cc1ccccc1)C(N)=O [compound 21] ({Isobutyryl(2-OH)}-PHSRGTF-NH2)	h	61
CCC(N)(CC)C(=O)N1CCC[C@H]1C(=O)N[C@@H](Cc1c[nH]cn1)C(=O)N[C@@H](CO)C(=O)N[C@@H](CCCNC(=N)N)C(=O)NCC(=O)N[C@H](C(=O)N[C@@H](Cc1ccccc1)C(N)=O)[C@@H](C)O [compound 20] (H-[Deg]PHSRGTF-NH2)	h	46
C[C@@H](O)[C@H](NC(=O)CNC(=O)[C@H](CCCNC(=N)N)NC(=O)[C@H](CO)NC(=O)[C@H](Cc1c[nH]cn1)NC(=O)[C@@H]1CCCN1C(=O)C(C)(C)N)C(=O)N[C@@H](Cc1ccccc1)C(N)=O [compound 14] (H-[Aib]PHSRGTF-NH2)	h	32
C[C@H](NC(=O)[C@@H]1CCCN1C(=O)C(C)(C)N)C(=O)N[C@@H](CO)C(=O)N[C@@H](CCCNC(=N)N)C(=O)NCC(=O)N[C@H](C(=O)N[C@@H](Cc1ccccc1)C(N)=O)[C@@H](C)O [compound 22] (H-[Aib]PASRGTF-NH2)	h	58
C[C@@H](O)[C@H](NC(=O)CNC(=O)[C@H](CCCNC(=N)N)NC(=O)[C@H](CO)NC(=O)[C@H](Cc1c[nH]cn1)NC(=O)[C@H]1CCCN1C(=O)C(C)(C)N)C(=O)N[C@@H](Cc1ccccc1)C(N)=O [compound 15] (H-[Aib][dP]HSRGTF-NH2)	h	20
C[C@@H](O)[C@H](NC(=O)CNC(=O)[C@H](CCCNC(=N)N)NC(=O)[C@H](CO)NC(=O)[C@@H](Cc1c[nH]cn1)NC(=O)[C@@H]1CCCN1C(=O)C(C)(C)N)C(=O)N[C@@H](Cc1ccccc1)C(N)=O [compound 16] (H-[Aib]P[dH]SRGTF-NH2)	h	16
